Kindly state concentration at which S/R > 2 (recN2 − 4) for each of the entries shown.
test system: Salmonella typhimurium TA104 recN2-4; conditions: without S9-mix; maximal S/N, 60-240 min
Answers are plain numbers, in ppm.

# count of solved cases: 3
>>> numeric_readout("Nc1ccc([N+](=O)[O-])cc1N")
3.1
>>> numeric_readout("COC(=O)N/N=C/c1c[n+]([O-])c2ccccc2[n+]1[O-]")
0.08
>>> numeric_readout("CCn1cc(C(=O)O)c(=O)c2ccc(C)nc21")
0.16

# evaluate next
For the compound shown here, CCOS(C)(=O)=O , give the reported concentration at which S/R > 2 (recN2 − 4).
256

---

test system: Salmonella typhimurium TA104 pr1
property name: Toxic (pri)

>>> result("[N-]=[N+]=[N-] [Sodium azide (NaN3), Sodium azide]")
"+"
>>> result("COc1ccc2nc3cc(Cl)ccc3c(NCCCNCCCl)c2c1")
"−"
>>> result("O=[N+]([O-])c1ccc2c(c1)Cc1cc([N+](=O)[O-])ccc1-2")
"−"
>>> result("c1ccc2c(c1)-c1cccc3cccc-2c13")
"−"

---

The following are reported concentration at which S/R's of rec/pri >1.5 MAX results, target or system TA104 recN2-4 and TA104 pr1 strain.

// known answers, use as guide
>>> result("Nc1cccc2ccccc12 [a-Naphtylamine]")
"2.5 ppm"
>>> result("Nc1ccc2c(c1)Cc1ccccc1-2 [2AF]")
"0.2 ppm"
>>> result("O=[N+]([O-])c1ccc2c(c1)Cc1cc([N+](=O)[O-])ccc1-2 [2,7Dinitrofluoreen]")
"0.62 ppm"

I am curious: what concentration at which S/R's of rec/pri >1.5 MAX value has been reported for COc1ccc2nc3cc(Cl)ccc3c(NCCCNCCCl)c2c1 [ICR 191 Acridine] ?
1.25 ppm

---

test system: TA104 recN2-4 and TA104 pr1 strain; conditions: without S9-mix; ratio of maximal S/N values
Hi there, I'd appreciate the recorded concentration at which S/R's of rec/pri >1.5 MAX for every entry that follows.
Give bare numbers, in ppm.

Worked set:
>>> numeric_readout("COS(C)(=O)=O")
8
>>> numeric_readout("CCOS(C)(=O)=O")
256
>>> numeric_readout("CCn1cc(C(=O)O)c(=O)c2ccc(C)nc21")
0.16
>>> numeric_readout("COC(=O)N/N=C/c1c[n+]([O-])c2ccccc2[n+]1[O-]")
0.08

We next turn to a different compound, shown below.
Request the reported concentration at which S/R's of rec/pri >1.5 MAX associated with Nc1ccc([N+](=O)[O-])cc1N
3.1

---

Can you tell me concentration at which S/R's of rec/pri >1.5 MEAN for the items I'm about to list?
test system: TA104 recN2-4 and TA104 pr1 strain; conditions: without S9-mix; ratio of mean S/N values

# annotated cases, reported concentration at which S/R's of rec/pri >1.5 MEAN shown
>>> result("CCOS(C)(=O)=O")
"256 ppm"
>>> result("CO[C@@]12[C@H](COC(N)=O)C3=C(C(=O)C(C)=C(N)C3=O)N1C[C@@H]1N[C@@H]12")
"15.6 ppb"
>>> result("CCn1cc(C(=O)O)c(=O)c2ccc(C)nc21")
"0.16 ppm"
>>> result("COC(=O)N/N=C/c1c[n+]([O-])c2ccccc2[n+]1[O-]")
"0.04 ppm"
>>> result("Nc1ccc([N+](=O)[O-])cc1N")
"1.57 ppm"
>>> result("COS(C)(=O)=O")
"8 ppm"

Dear colleague, I am looking for the recorded concentration at which S/R's of rec/pri >1.5 MEAN of the following compound: O=[N+]([O-])c1ccc2c3c(cccc13)-c1ccccc1-2
15.7 ppb

---

These records show concentration at which S/R's of rec/pri >1.5 MEAN for TA104 recN2-4 and TA104 pr1 strain.

See these solved cases before continuing.
>>> result("O=[N+]([O-])c1ccc2c(c1)Cc1cc([N+](=O)[O-])ccc1-2 [2,7Dinitrofluoreen]")
"0.62 ppm"
>>> result("Nc1ccc2c(c1)Cc1ccccc1-2 [2AF]")
"0.2 ppm"
>>> result("COc1ccc2nc3cc(Cl)ccc3c(NCCCNCCCl)c2c1 [ICR 191 Acridine]")
"0.31 ppm"

Could you now look at the following compound, please?
Look at this compound and give its reported concentration at which S/R's of rec/pri >1.5 MEAN. Nc1cccc2ccccc12 [a-Naphtylamine]
2.5 ppm

Hey, just so you know, these numbers are from patent US6472152B1.
